# Reported Conditions: in isopropanol, 308.2 K
Attribute Measured: solubility (mole fraction)
No unit in the answer, only the number.

Task item: Entry C=C(C)[C@@H]1CC[C@]2(C(=O)O)CC[C@]3(C)[C@H](CC[C@@H]4[C@@]5(C)CC[C@H](O)C(C)(C)[C@@H]5CC[C@]43C)[C@@H]12 : reported solubility (mole fraction) = ?
Reply: 0.00149

---

# Reported Conditions: in n-propanol, 288.2 K
Attribute Measured: solubility (mole fraction)
// response body must contain only the number

Task item: Need solubility (mole fraction) of C=C(C)[C@@H]1CC[C@]2(C(=O)O)CC[C@]3(C)[C@H](CC[C@@H]4[C@@]5(C)CC[C@H](O)C(C)(C)[C@@H]5CC[C@]43C)[C@@H]12 , thanks.
Reply: 0.00137

---

# Reported Conditions: in methanol, 318.2 K
Attribute Measured: solubility (mole fraction)
Field format: numeric only.

Task item: Could you tell me which solubility (mole fraction) is on file for C=C(C)[C@@H]1CC[C@]2(C(=O)O)CC[C@]3(C)[C@H](CC[C@@H]4[C@@]5(C)CC[C@H](O)C(C)(C)[C@@H]5CC[C@]43C)[C@@H]12 ?
Reply: 0.000734

---

# Reported Conditions: in n-butyl acetate, 318.2 K
Attribute Measured: solubility (mole fraction)
# respond with the number and nothing more

Task item: Which value of solubility (mole fraction) has been reported for C=C(C)[C@@H]1CC[C@]2(C(=O)O)CC[C@]3(C)[C@H](CC[C@@H]4[C@@]5(C)CC[C@H](O)C(C)(C)[C@@H]5CC[C@]43C)[C@@H]12 in the records?
Reply: 0.00193

---

# Reported Conditions: in n-pentanol, 288.2 K
Attribute Measured: solubility (mole fraction)

Task item: Value lookup for solubility (mole fraction); key = C=C(C)[C@@H]1CC[C@]2(C(=O)O)CC[C@]3(C)[C@H](CC[C@@H]4[C@@]5(C)CC[C@H](O)C(C)(C)[C@@H]5CC[C@]43C)[C@@H]12
Reply: 0.00228

---

# Reported Conditions: in n-propanol, 308.2 K
Attribute Measured: solubility (mole fraction)
Just the number, please, no unit after it.

Task item: What solubility (mole fraction) value was documented for this compound, C=C(C)[C@@H]1CC[C@]2(C(=O)O)CC[C@]3(C)[C@H](CC[C@@H]4[C@@]5(C)CC[C@H](O)C(C)(C)[C@@H]5CC[C@]43C)[C@@H]12 ?
Reply: 0.00221

---

# Reported Conditions: in ethyl acetate, 318.2 K
Attribute Measured: solubility (mole fraction)
# output: bare number, no unit

Task item: Item under review: C=C(C)[C@@H]1CC[C@]2(C(=O)O)CC[C@]3(C)[C@H](CC[C@@H]4[C@@]5(C)CC[C@H](O)C(C)(C)[C@@H]5CC[C@]43C)[C@@H]12 . Reported solubility (mole fraction)?
Reply: 0.00124

---

# Reported Conditions: in sec-butanol, 278.2 K
Attribute Measured: solubility (mole fraction)
Give your answer as a number; write no unit.

Task item: Recorded solubility (mole fraction) for C=C(C)[C@@H]1CC[C@]2(C(=O)O)CC[C@]3(C)[C@H](CC[C@@H]4[C@@]5(C)CC[C@H](O)C(C)(C)[C@@H]5CC[C@]43C)[C@@H]12 , please?
Reply: 0.000821

---

# Reported Conditions: in sec-butanol, 298.2 K
Attribute Measured: solubility (mole fraction)
Give the figure only, with no unit attached.

Task item: Please look up its solubility (mole fraction): C=C(C)[C@@H]1CC[C@]2(C(=O)O)CC[C@]3(C)[C@H](CC[C@@H]4[C@@]5(C)CC[C@H](O)C(C)(C)[C@@H]5CC[C@]43C)[C@@H]12
Reply: 0.00149
